The origin of these recorded values is ChEMBL document CHEMBL4011634.

protocol: Half life in rat at 1 mg/kg, iv
Type: ADME, organism-based
assay-conditions: in vivo
reported-metric: half-life (h)
Your answer should be a plain number; it is taken to be in h.

Recorded half-life for "O=C1NC(=O)[C@](CNC(=O)[C@@H](Cc2ccc(C(F)(F)F)cc2)C2CC2)(C2CC2)N1" , please?
1.5

====

target-desc: A disintegrin and metalloproteinase with thrombospondin motifs 5 (Homo sapiens, UniProt Q9UNA0)
Sequence (Q9UNA0 whole entry): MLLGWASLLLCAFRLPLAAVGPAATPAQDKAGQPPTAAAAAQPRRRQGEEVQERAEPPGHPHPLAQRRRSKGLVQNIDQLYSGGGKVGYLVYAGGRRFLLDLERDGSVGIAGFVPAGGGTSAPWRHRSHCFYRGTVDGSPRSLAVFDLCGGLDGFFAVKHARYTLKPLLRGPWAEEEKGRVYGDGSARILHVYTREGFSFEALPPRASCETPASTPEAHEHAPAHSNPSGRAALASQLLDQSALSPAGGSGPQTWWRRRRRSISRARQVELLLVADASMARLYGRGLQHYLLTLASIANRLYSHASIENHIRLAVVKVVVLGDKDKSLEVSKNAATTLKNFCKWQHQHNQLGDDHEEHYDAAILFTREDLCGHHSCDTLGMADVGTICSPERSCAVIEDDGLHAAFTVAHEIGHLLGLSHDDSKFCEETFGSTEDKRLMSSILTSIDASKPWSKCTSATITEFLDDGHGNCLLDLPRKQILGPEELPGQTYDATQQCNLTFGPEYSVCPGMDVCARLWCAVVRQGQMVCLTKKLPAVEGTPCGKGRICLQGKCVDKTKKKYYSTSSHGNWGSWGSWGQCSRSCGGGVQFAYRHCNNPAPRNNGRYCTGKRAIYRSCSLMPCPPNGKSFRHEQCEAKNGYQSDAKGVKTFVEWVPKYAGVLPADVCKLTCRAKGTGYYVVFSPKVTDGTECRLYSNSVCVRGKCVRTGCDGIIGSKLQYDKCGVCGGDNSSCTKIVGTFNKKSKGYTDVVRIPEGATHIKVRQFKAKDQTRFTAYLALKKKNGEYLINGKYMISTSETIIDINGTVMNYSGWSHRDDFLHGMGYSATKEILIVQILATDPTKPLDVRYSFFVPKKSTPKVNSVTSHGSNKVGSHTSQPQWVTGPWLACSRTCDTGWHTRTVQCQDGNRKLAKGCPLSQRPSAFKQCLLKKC
protocol: Inhibition of human ADAMTS5 using VQTVTWPDMELPLPRNITEGEARGSVILTVKPIFEVSPSPLKG peptide as substrate after 3 hrs in the presence of 50% Lewis rat plasma by Alphascreen assay
reported-metric: IC50 (nM)
Your answer should be a plain number; it is taken to be in nM.

Recorded IC50 for "O=C(CCc1ccc(C(F)(F)F)cc1)NC[C@@]1(C2CC2)NC(=O)NC1=O" , please?
52

====

protocol: AUC (0 to 24 hrs) in rat at 10 mg/kg, po
Type: ADME, organism-based
Parameters: dose 10 mg/kg, time < 24 hr, route oral
assay-conditions: in vivo
reported-metric: AUC(0-t) at 24 h (µM·h)
Your answer should be a plain number; it is taken to be in µM·h.

Recorded AUC(0-t) at 24 h for "O=C1NC(=O)[C@](CNC(=O)[C@@H](Cc2ccc(C(F)(F)F)cc2)C2CC2)(C2CC2)N1" , please?
22

====

protocol: Plasma concentration in rat at 10 mg/kg, po measured at 12 hrs post dose
Format: ADME, organism-based
reported-metric: concentration at 12 h (nM)
Your answer should be a plain number; it is taken to be in nM.

Recorded concentration at 12 h for "O=C1NC(=O)[C@](CNC(=O)[C@@H](Cc2ccc(C(F)(F)F)cc2)C2CC2)(C2CC2)N1" , please?
29
